# Tgt: Mu-type opioid receptor (Homo sapiens, UniProt P35372)
# Sequence (P35372 whole entry): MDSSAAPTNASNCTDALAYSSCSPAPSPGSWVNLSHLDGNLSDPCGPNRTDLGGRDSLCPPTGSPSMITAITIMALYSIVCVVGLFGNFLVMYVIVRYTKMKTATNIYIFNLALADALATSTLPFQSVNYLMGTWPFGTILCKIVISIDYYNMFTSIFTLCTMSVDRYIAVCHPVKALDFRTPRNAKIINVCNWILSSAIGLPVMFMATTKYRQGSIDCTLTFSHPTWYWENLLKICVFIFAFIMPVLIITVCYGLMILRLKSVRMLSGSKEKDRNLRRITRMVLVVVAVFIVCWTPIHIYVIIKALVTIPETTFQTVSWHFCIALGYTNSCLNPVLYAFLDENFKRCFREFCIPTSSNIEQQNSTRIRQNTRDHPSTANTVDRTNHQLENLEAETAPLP
# Protocol: Compound was evaluated for binding affinity towards Opioid receptor mu 1 by displacing 125 I-FK-33824
Property label: IC50

> print(dat)
                                   compound                                       tgt      result
1  COc1cc2c(cc1-c1ccccc1)C[C@@H](C(=O)O)N(C(=O)C(N)Cc1c(C)cc(O)cc1C)C2 (stereo not given in full)  Mu-type opioid receptor (Homo sapiens, UniProt P35372)  > 10000 nM
2  COc1ccc(-c2ccc3c(c2)CN(C(=O)C(N)Cc2c(C)cc(O)cc2C)[C@H](C(=O)O)C3)cc1 (stereo not given in full)  Mu-type opioid receptor (Homo sapiens, UniProt P35372)     2650 nM
3  Cc1cc(O)cc(C)c1CC(N)C(=O)N1Cc2cc(-c3cc4ccccc4o3)ccc2C[C@H]1C(=O)O (stereo not given in full)  Mu-type opioid receptor (Homo sapiens, UniProt P35372)     2440 nM
4  Cc1cc(O)cc(C)c1C[C@H](N)C(=O)N1Cc2c(cc(Br)c(O)c2Br)C[C@H]1C(=O)O  Mu-type opioid receptor (Homo sapiens, UniProt P35372)     1240 nM

Could you now look at the following compound, please?
Request: Note down IC50 recorded for COc1c(Br)cc2c(c1Br)CN(C(=O)[C@@H](N)Cc1c(C)cc(O)cc1C)[C@H](C(=O)O)C2
Response: 1670 nM
